B1: Trinucleotide repeat-containing gene 6C protein (Homo sapiens), Q9HCJ0 (parent)
chain: MEEKKKKKQEEKKKKEGAQKKAADQKTKVPEPTKTCSSQPQPAGTSTSTSTSTISSSNNGKRASASGQQPAASRYLPREVPPRFRQQEQKQLLKRGQPLPTGTLTSVSPTQGAGPAGVSPPPLPGAGTQHHPSKLQPDLSHSGLADHYENSHWGQQPTYRSEANCSWDKVIIDRTDKEAWPSITGTETESASECTTDTDSASNCGSENSSMATGSAQGNFTGHTKKTNGNNGTNGALVQSPSNQSALGAGGANSNGSAARVWGVATGSSSGLAHCSVSGGDGKMDTMIGDGRSQNCWGASNSNAGINLNLNPNANPAAWPVLGHEGTVATGNPSSICSPVSAIGQNMGNQNGNPTGTLGAWGNLLPQESTEPQTSTSQNVSFSAQPQNLNTDGPNNTNPMNSSPNPINAMQTNGLPNWGMAVGMGAIIPPHLQGLPGANGSSVSQVSGGSAEGISNSVWGLSPGNPATGNSNSGFSQGNGDTVNSALSAKQNGSSSAVQKEGSGGNAWDSGPPAGPGILAWGRGSGNNGVGNIHSGAWGHPSRSTSNGVNGEWGKPPNQHSNSDINGKGSTGWESPSVTSQNPTVQPGGEHMNSWAKAASSGTTASEGSSDGSGNHNEGSTGREGTGEGRRRDKGIIDQGHIQLPRNDLDPRVLSNTGWGQTPVKQNTAWEFEESPRSERKNDNGTEAWGCAATQASNSGGKNDGSIMNSTNTSSVSGWVNAPPAAVPANTGWGDSNNKAPSGPGVWGDSISSTAVSTAAAAKSGHAWSGAANQEDKSPTWGEPPKPKSQHWGDGQRSNPAWSAGGGDWADSSSVLGHLGDGKKNGSGWDADSNRSGSGWNDTTRSGNSGWGNSTNTKANPGTNWGETLKPGPQQNWASKPQDNNVSNWGGAASVKQTGTGWIGGPVPVKQKDSSEATGWEEPSPPSIRRKMEIDDGTSAWGDPSNYNNKTVNMWDRNNPVIQSSTTTNTTTTTTTTTSNTTHRVETPPPHQAGTQLNRSPLLGPVSSGWGEMPNVHSKTENSWGEPSSPSTLVDNGTAAWGKPPSSGSGWGDHPAEPPVAFGRAGAPVAASALCKPASKSMQEGWGSGGDEMNLSTSQWEDEEGDVWNNAASQESTSSCSSWGNAPKKGLQKGMKTSGKQDEAWIMSRLIKQLTDMGFPREPAEEALKSNNMNLDQAMSALLEKKVDVDKRGLGVTDHNGMAAKPLGCRPPISKESSVDRPTFLDKDGGLVEEPTPSPFLPSPSLKLPLSHSALPSQALGGIASGLGMQNLNSSRQIPSGNLGMFGNSGAAQARTMQQPPQPPVQPLNSSQPSLRAQVPQFLSPQVQAQLLQFAAKNIGLNPALLTSPINPQHMTMLNQLYQLQLAYQRLQIQQQMLQAQRNVSGSMRQQEQQVARTITNLQQQIQQHQRQLAQALLVKQPPPPPPPPHLSLHPSAGKSAMDSFPSHPQTPGLPDLQTKEQQSSPNTFAPYPLAGLNPNMNVNSMDMTGGLSVKDPSQSQSRLPQWTHPNSMDNLPSAASPLEQNPSKHGAIPGGLSIGPPGKSSIDDSYGRYDLIQNSESPASPPVAVPHSWSRAKSDSDKISNGSSINWPPEFHPGVPWKGLQNIDPENDPDVTPGSVPTGPTINTTIQDVNRYLLKSGGSSPPSSQNATLPSSSAWPLSASGYSSSFSSIASAPSVAGKLSDIKSTWSSGPTSHTQASLSHELWKVPRNSTAPTRPPPGLTNPKPSSTWGASPLGWTSSYSSGSAWSTDTSGRTSSWLVLRNLTPQIDGSTLRTLCLQHGPLITFHLNLTQGNAVVRYSSKEEAAKAQKSLHMCVLGNTTILAEFAGEEEVNRFLAQGQALPPTSSWQSSSASSQPRLSAAGSSHGLVRSDAGHWNAPCLGGKGSSELLWGGVPQYSSSLWGPPSADDSRVIGSPTPLTTLLPGDLLSGESL

Variants of: B1
Settings: with pabp1_human PABPC1, P11940
Sequence (P11940 whole entry): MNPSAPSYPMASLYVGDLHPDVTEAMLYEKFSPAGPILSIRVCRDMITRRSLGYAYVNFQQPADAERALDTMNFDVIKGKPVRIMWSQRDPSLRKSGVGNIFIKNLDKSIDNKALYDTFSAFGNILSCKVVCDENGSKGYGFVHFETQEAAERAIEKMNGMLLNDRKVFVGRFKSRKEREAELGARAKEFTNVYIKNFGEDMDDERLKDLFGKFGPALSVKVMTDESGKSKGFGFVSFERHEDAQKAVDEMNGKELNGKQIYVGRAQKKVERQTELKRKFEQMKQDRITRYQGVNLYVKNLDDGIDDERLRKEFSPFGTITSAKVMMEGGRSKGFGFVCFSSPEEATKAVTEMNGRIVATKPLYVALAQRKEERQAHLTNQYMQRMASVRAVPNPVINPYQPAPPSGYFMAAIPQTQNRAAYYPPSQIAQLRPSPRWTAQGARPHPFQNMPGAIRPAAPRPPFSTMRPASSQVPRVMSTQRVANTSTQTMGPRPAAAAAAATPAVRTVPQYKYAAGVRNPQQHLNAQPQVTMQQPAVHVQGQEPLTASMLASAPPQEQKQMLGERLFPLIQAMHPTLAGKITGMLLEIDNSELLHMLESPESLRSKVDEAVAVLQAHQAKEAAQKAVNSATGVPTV
MEASURED_PROPERTY: effect of a mutation on the interaction

Query: Note effect of a mutation on the interaction for the variant shown: P1593A
Response: decreasing interaction

Query: Note effect of a mutation on the interaction for the variant shown: P1601A
Response: decreasing interaction

Query: Note effect of a mutation on the interaction for the variant shown: W1592A
Response: decreasing interaction
